Biological target: DWV 3C protease (GST-DWV 3C^pro) (Deformed wing virus)
Construct: cDNA corresponding to amino acid 2094–2353 of DWV polyprotein; made in house; host or cells: E. coli BL21
Sequence (Q8B3M2 2094-2353): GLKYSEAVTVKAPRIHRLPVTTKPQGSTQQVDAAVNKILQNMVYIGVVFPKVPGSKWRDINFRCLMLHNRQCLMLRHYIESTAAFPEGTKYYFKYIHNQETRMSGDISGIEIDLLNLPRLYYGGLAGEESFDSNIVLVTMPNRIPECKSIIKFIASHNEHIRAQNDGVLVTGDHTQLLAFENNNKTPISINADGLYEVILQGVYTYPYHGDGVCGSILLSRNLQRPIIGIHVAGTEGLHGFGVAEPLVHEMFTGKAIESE
Assay: FRET protease assay of GST-DWV 3C^pro with fluorogenic peptide substrate
Format: biochemical
Conditions: tested in the presence of 2 mM DTT; pH 6.0, 33°C, 1 μM enzyme, 20 μM peptide substrate, n = 3; read-out: IC50 of DWV 3C^pro inhibitors
pIC50: −log10 of the molar value.
Values of pIC50 greater than or equal to 4 map to criterion met; values below map to criterion not met.

compound: [Zn] [Zinc, zinc]
group.label: criterion not met
--
compound: CC(C)C[C@H](NC(=O)OCc1ccccc1)C(=O)N[C@@H](CC1CCNC1=O)C(O)S(=O)(=O)O (some centres unmarked) [GC376]
group.label: criterion met
--
compound: O=c1c(O)c(-c2ccc(O)c(O)c2)oc2cc(O)cc(O)c12 [Quercetin]
group.label: criterion not met

Kindly consider the entry below.
Exercise: Is the recorded value of pIC50 equal to or greater than 4 for this compound? CCOC(=O)/C=C/[C@H](C[C@@H]1CCNC1=O)NC(=O)[C@@H](CC(=O)[C@@H](NC(=O)c1cc(C)on1)C(C)C)Cc1ccc(F)cc1 [Rupintrivir]
Solution: criterion met
